B1: Hairpin Ribozyme (parent)
chain: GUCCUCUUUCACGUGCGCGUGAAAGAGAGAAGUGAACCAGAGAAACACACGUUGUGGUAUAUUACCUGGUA

Variants of: B1
Test: self-cleavage, relative activity (ratio to wild type); higher = more cleavage; co-transcriptional
Reported self-cleavage by item:

// below: answered variants
INSERT INTO results (residue_codes, reported_value) VALUES
  ('GUCCUCUUUCACGUGCGCGUGAAAGAGAGAAGUGAACCAGAGAAACCCACGUUGUGGUAUAUUUCCUGGUA', 0.218),
  ('GUCCUCUUUCACGUGCGCGUGAAAGAAAGAAGUGAACCAGAGAAACACACGUUGUUGUAUAUUACCUGGUA', 0.156),
  ('GUCCUCUUUCACGUUCGCGUGAAAGAGAGAAGUGAACCAGAGAAACACACGUUGUGGUAGAUUACCUGGUA', 0.57),
  ('GUCCUCUUUCACGUGCGCGUGAAAGAGAGAAGUGAACCAGUGAAACAGACGUUGUGGUAUAUUACCUGGUA', 0.241),
  ('GUCCUCUUUCACGUGCGCGUGAAAGAGAGAAGUGAAACAGAGAAACACACGUUGUGGUAUAUUACGUGGUA', 0.105),
  ('GUCCUCUUUCACGUGCGCGUGAAAGAGAGAAGUGAACCAGAGCAACACACGUUGUGGUAUAUUACCUGGCA', 0.164),
  ('GUCCUCUUUCACGUGGGCGUGAAAGAGAGAAGUGAACCAGAGAAACUCACGUUGUGGUAUAUUACCUGGUA', 0.06),
  ('GUCCUCUUUCACGUGCGCGUGAAAGCGAGAAGUGAACCAGAGAAACACACGUUGUGGUAUGUUACCUGGUA', 0.0543),
  ('GUGCUCUUUCGCGUGCGCGUGAAAGAGAGAAGUGAACCAGAGAAACACACGUUGUGGUAUAUUACCUGGUA', 0.18),
  ('GUCCUCUUUCACGUGCGCGUGAAAGAGAGAAGUGAACCAGAGACACACACGUAGUGGUAUAUUACCUGGUA', 0.186);

Which self-cleavage value is on record for GUCCUCUUUCAAGUGCGCGUGAAAGAGAGAAGUGAACCAGAGAAACUCACGUUGUGGUAUAUUACCUGGUA ?
0.132

# get_value(readout='self-cleavage', item= GUCCUCUUUCACGUGCGCGUGAAAGAGAGAAGUGUACCAGAGAAACACAAGUUGUGGUAUAUUACCUGGUA )
0.295

Data origin: the RNAGym collection of RNA variant scans (doi:10.7554/elife.80360)
